Tested on: Thoracic aorta
Experiment: Anti-angiogenic activity against Sprague-Dawley rat thoracic aorta assessed as reduction in microvessel outgrowth arising fron aortic rings at 5 uM after 6 days by inverted microscopic method
Assay type: functional, tissue-based
Activity calls are given as the source filed them. The calls are words filed in the database; no cut-off is given here.
Would you mind answering with one of these outcomes? TRUE (active), FALSE (inactive)

Task item: How was O=C(N[C@H]1C[C@@H](C(=O)NO)N(S(=O)(=O)c2ccc(Oc3ccccc3)cc2)C1)c1ccc2no[n+]([O-])c2c1 classified in this test?
Reply: TRUE

Task item: How was COc1ccc(/C=C/C(=O)N2C[C@@H](NC(=O)c3cccc4no[n+]([O-])c34)C[C@H]2C(=O)NO)cc1OC classified in this test?
Reply: FALSE

Task item: How was O=C(N[C@H]1C[C@@H](C(=O)NO)N(S(=O)(=O)c2ccc(Oc3ccccc3)cc2)C1)c1cccc2no[n+]([O-])c12 classified in this test?
Reply: FALSE

Task item: How was COc1ccc(/C=C/C(=O)N2C[C@@H](NC(=O)c3cccnc3)C[C@H]2C(=O)NO)cc1OC classified in this test?
Reply: TRUE

Task item: How was COc1ccc(/C=C/C(=O)N2C[C@@H](NC(=O)c3ccc4no[n+]([O-])c4c3)C[C@H]2C(=O)NO)cc1OC classified in this test?
Reply: TRUE

---

Tested on: MCF7
Assay: Antiproliferative activity against human MCF7 cells after 48 hrs by MTT assay
Format: functional, cell-based
Details: MCF7, 48 h
measured_endpoint: pIC50
Scale: negative log10 of molar concentration, which is what pIC50 denotes.

Task item: What does the data say about its pIC50? Entry: COc1ccc(/C=C/C(=O)N2C[C@@H](NC(=O)c3ccc4no[n+]([O-])c4c3)C[C@H]2C(=O)NO)cc1OC
Reply: 4.97

Task item: What does the data say about its pIC50? Entry: O=C(N[C@H]1C[C@@H](C(=O)NO)N(S(=O)(=O)c2ccc(Oc3ccccc3)cc2)C1)c1cccc2no[n+]([O-])c12
Reply: 4.89

Task item: What does the data say about its pIC50? Entry: COc1ccc(/C=C/C(=O)N2C[C@@H](NC(=O)c3cccc4no[n+]([O-])c34)C[C@H]2C(=O)NO)cc1OC
Reply: 4.63

Task item: What does the data say about its pIC50? Entry: O=C(N[C@H]1C[C@@H](C(=O)NO)N(S(=O)(=O)c2ccc(Oc3ccccc3)cc2)C1)c1ccc2no[n+]([O-])c2c1
Reply: 5.38
